Cited source: PubChem BioAssay (NCI)

- System: NCI-H460 lung
- experiment.summary: NCI tumour cell line growth inhibition, 48 h
assay.metric: TGI

// known answers, use as guide
>  <smiles.str>
O=C(NCCCNCCCCNCCCNC(=O)C(F)(F)F)C(F)(F)F

>  <observed>
> 100 µM

$$$$
>  <smiles.str>
c1cc[c]([Sn]([S]c2cccc3cccnc23)([c]2ccccc2)[c]2ccccc2)cc1

>  <observed>
0.033 µM

$$$$

From here, focus on the item given below.
Request - read-out TGI | tested on NCI-H460 lung | molecule O=C(CN=C(CN(c1ccccc1)c1ccccc1)Oc1c(Cl)cc(Cl)cc1Cl)n1cnc2ccccc21
> 100 µM
